tested.on: T1, cynomolgus EpCAM protein (cynomolgus monkey)
T1 construct: biotinylated in the Octet assays; also called cy EpCAM; cynomolgus monkey EpCAM
protocol.details: colorimetric ELISA
Description: Llamas were immunized with purified EpCAM protein expressed in Expi293 cells. A phage display library for expression of heavy variable antibody domains was constructed from circulating B cells. See van der Linden, de Geus, Stok, Bos,van Wassenaar, Verrips, and Frenken. 2000. J Immunol Methods 240:185-195. […]
The following binders are listed with their measured ELISA absorbance values.
property.label: ELISA absorbance (absorbance)

{"binder": "Llama anti-EpCAM single domain antibody EPL2 (VHH, E. coli periplasmic extract) VHH: QVQLQESGGGLVQPGGSLRLSCAASESISSFIAVGWYRQAPGKERELVAGINRSGFTYYTDSVKGRFSISRDNAKNTVLLQMTSLKPEDTAVYYCNAGGLYFSNAYTQGDYWGQGTQVTVSS", "measured.result": 3.6}
{"binder": "Llama anti-EpCAM single domain antibody EPL159 (VHH, E. coli periplasmic extract) VHH: QVQLQESGGGLVQAGGSLRLSCAASGFAFGNHWMYWYRQAPGRGRELVASISSGGSTNYVDSVKGRFTISRDNARNTVYLQMYSLKPEDTAVYYCGTSDNWGQGTQVTVSS", "measured.result": 0.2}
